molecular target: LIM kinase 1 (LIMK1) (Homo sapiens, UniProt P53667); assay: Kinase Glo luciferase ATP-depletion assay with recombinant cofilin, […] ATP
Sequence (P53667 339-604 limits assumed): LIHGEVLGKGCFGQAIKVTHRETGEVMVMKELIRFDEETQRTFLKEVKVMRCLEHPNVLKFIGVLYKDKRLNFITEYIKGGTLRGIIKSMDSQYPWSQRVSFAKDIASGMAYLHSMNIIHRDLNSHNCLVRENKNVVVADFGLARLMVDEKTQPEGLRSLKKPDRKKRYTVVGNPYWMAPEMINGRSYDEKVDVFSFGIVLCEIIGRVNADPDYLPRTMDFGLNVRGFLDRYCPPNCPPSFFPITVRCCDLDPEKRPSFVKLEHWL
measured-parameter: IC50 (nM)
Answers are plain numbers, in nM.

Lab note: need IC50 for "COc1c(C=O)c(O)cc2c1C(=O)c1ccccc1C2=O" on LIM kinase 1 (LIMK1) (Homo sapiens, UniProt P53667), anyone have it?
19
